# System: MCF7
# assayOverview: Antiproliferative activity in human MCF7 cells assessed as cell growth inhibition after 48 hrs by SRB assay
# Assay type: functional
# conditionsUsed: MCF7, 48 h
measurementKind: GI50

smilesData: COc1cc2c3c(n(CCCN4CCOCC4)c(=O)c2cc1OC)-c1cc2c(cc1C3=O)OCO2
measurementTarget: MCF7
measurementKind: GI50
reportedResult: 374 nM
//
smilesData: COc1cc2c3c(n(CCCN4CCOCC4)c(=O)c2cc1OC(C)=O)-c1cc2c(cc1C3=O)OCO2
measurementTarget: MCF7
measurementKind: GI50
reportedResult: < 10 nM
//
smilesData: COc1cc2c(=O)n(CCCN3CCOCC3)c3c(c2cc1OC(=O)c1ccccc1)C(=O)c1cc2c(cc1-3)OCO2
measurementTarget: MCF7
measurementKind: GI50
reportedResult: 33 nM
//
smilesData: COc1cc2c3c(n(CCCN4CCOCC4)c(=O)c2cc1OC(=O)c1ccccc1)-c1cc2c(cc1C3=O)OCO2
measurementTarget: MCF7
measurementKind: GI50
reportedResult: 15 nM
//
smilesData: COc1cc2c3c(n(CCCN4CCOCC4)c(=O)c2cc1OS(=O)(=O)O)-c1cc2c(cc1C3=O)OCO2
measurementTarget: MCF7
measurementKind: GI50
reportedResult: 209 nM
//
smilesData: COc1cc2c(=O)n(CCCN3CCOCC3)c3c(c2cc1OC(=O)c1cccnc1)C(=O)c1cc2c(cc1-3)OCO2
measurementTarget: MCF7
measurementKind: GI50
reportedResult: < 10 nM
//
smilesData: COc1cc2c(=O)n(CCCN3CCOCC3)c3c(c2cc1OC(=O)N(C)C)C(=O)c1cc2c(cc1-3)OCO2
measurementTarget: MCF7
measurementKind: GI50
reportedResult: 22 nM
//
smilesData: COc1cc2c3c(n(CCCN4CCOCC4)c(=O)c2cc1OC(=O)N(C)C)-c1cc2c(cc1C3=O)OCO2
measurementTarget: MCF7
measurementKind: GI50
reportedResult: < 10 nM
//
smilesData: COC(=O)CCC(=O)Oc1cc2c(=O)n(CCCN3CCOCC3)c3c(c2cc1OC)C(=O)c1cc2c(cc1-3)OCO2
measurementTarget: MCF7
measurementKind: GI50
reportedResult: < 10 nM
//
smilesData: COc1cc2c3c(n(CCCN4CCOCC4)c(=O)c2cc1OC(=O)c1cccnc1)-c1cc2c(cc1C3=O)OCO2
measurementTarget: MCF7
measurementKind: GI50
reportedResult: < 10 nM
//
smilesData: COc1cc2c(=O)n(CCCN3CCOCC3)c3c(c2cc1OC(C)=O)C(=O)c1cc2c(cc1-3)OCO2
measurementTarget: MCF7
measurementKind: GI50
reportedResult: < 10 nM
//
smilesData: COC(=O)CCC(=O)Oc1cc2c3c(n(CCCN4CCOCC4)c(=O)c2cc1OC)-c1cc2c(cc1C3=O)OCO2
measurementTarget: MCF7
measurementKind: GI50
reportedResult: < 10 nM
//
smilesData: COc1cc2c3c(n(CCCN4CCOCC4)c(=O)c2cc1O)-c1cc2c(cc1C3=O)OCO2
measurementTarget: MCF7
measurementKind: GI50
reportedResult: < 10 nM

---

# assayOverview: Antiproliferative activity in human […] cells assessed as cell growth inhibition after 48 hrs by SRB assay
# Assay type: functional
// reported GI50 per item

smilesData: COC(=O)CCC(=O)Oc1cc2c3c(n(CCCN4CCOCC4)c(=O)c2cc1OC)-c1cc2c(cc1C3=O)OCO2
unitSymbol: µM
GI50: 0.066
//
smilesData: COc1cc2c3c(n(CCCN4CCOCC4)c(=O)c2cc1OC)-c1cc2c(cc1C3=O)OCO2
unitSymbol: µM
GI50: 74.1
//
smilesData: COc1cc2c(=O)n(CCCN3CCOCC3)c3c(c2cc1OC(=O)c1cccnc1)C(=O)c1cc2c(cc1-3)OCO2
unitSymbol: µM
GI50: 0.295
//
smilesData: COc1cc2c3c(n(CCCN4CCOCC4)c(=O)c2cc1OS(=O)(=O)O)-c1cc2c(cc1C3=O)OCO2
unitSymbol: µM
GI50: 1.12
//
smilesData: COc1cc2c3c(n(CCCN4CCOCC4)c(=O)c2cc1O)-c1cc2c(cc1C3=O)OCO2
unitSymbol: µM
GI50: 0.03
//
smilesData: COc1cc2c(=O)n(CCCN3CCOCC3)c3c(c2cc1OC(=O)c1ccccc1)C(=O)c1cc2c(cc1-3)OCO2
unitSymbol: µM
GI50: 4.57
//
smilesData: COC(=O)CCC(=O)Oc1cc2c(=O)n(CCCN3CCOCC3)c3c(c2cc1OC)C(=O)c1cc2c(cc1-3)OCO2
unitSymbol: µM
GI50: 0.037
//
smilesData: COc1cc2c3c(n(CCCN4CCOCC4)c(=O)c2cc1OC(=O)c1ccccc1)-c1cc2c(cc1C3=O)OCO2
unitSymbol: µM
GI50: 30.9
